Target: Serotonin 3 (5-HT3) receptor (Rattus norvegicus, UniProt P35563+Q9JJ16)
Sequence (P35563 whole entry): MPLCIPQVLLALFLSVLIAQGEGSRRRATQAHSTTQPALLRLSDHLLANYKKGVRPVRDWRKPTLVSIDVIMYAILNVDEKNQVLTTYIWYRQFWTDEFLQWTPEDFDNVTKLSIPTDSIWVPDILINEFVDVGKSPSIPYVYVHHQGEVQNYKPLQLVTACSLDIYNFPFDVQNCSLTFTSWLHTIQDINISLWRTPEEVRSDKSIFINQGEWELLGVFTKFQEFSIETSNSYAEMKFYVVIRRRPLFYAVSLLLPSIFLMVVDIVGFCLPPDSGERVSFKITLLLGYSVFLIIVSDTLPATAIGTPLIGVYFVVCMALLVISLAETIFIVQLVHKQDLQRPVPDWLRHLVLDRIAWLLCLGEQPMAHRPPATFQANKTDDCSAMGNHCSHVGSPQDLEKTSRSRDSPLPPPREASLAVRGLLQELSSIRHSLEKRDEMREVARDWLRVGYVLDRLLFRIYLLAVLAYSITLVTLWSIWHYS
Sequence (Q9JJ16 whole entry): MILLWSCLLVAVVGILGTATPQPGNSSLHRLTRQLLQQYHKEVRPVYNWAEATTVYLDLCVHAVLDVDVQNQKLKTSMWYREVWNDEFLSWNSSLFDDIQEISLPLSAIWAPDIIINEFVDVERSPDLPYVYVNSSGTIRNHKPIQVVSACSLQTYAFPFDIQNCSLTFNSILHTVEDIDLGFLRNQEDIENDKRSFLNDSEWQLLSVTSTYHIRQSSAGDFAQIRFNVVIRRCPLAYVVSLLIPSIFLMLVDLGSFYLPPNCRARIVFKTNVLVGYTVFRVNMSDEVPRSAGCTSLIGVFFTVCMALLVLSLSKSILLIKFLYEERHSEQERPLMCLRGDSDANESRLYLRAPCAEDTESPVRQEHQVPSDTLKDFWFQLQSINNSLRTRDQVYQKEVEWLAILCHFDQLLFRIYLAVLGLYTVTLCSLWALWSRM
Test: Binding affinity against 5-hydroxytryptamine 3 (5-HT3) receptor in rat brain cortical membranes using radioligand [3H]quipazine
metric.name: pKi
Answers are plain numbers, as −log10 of the molar value.

molecule	pKi
O=c1c2ccccc2ccn1C1CN2CCC1CC2 (centres undefined)	8.00
Cl.O=c1c2cccc3c2c(cn1[C@H]1CN2CCC1CC2)CCC3	8.10
Cc1cccc2c(=O)n(C3CN4CCC3CC4)ccc12.Cl (centres undefined)	9.20

From here, focus on the item given below.
Query string: Entry O=C1c2ccccc2CCN1C1CN2CCC1CC2 (centres undefined) : reported pKi = ?
Result string: 8.00
